Biological target: M3 muscarinic receptor (Homo sapiens)
Construct: expressed in transfected cells; host or cells: CHO (M3-CHO)
Sequence (P20309 whole entry): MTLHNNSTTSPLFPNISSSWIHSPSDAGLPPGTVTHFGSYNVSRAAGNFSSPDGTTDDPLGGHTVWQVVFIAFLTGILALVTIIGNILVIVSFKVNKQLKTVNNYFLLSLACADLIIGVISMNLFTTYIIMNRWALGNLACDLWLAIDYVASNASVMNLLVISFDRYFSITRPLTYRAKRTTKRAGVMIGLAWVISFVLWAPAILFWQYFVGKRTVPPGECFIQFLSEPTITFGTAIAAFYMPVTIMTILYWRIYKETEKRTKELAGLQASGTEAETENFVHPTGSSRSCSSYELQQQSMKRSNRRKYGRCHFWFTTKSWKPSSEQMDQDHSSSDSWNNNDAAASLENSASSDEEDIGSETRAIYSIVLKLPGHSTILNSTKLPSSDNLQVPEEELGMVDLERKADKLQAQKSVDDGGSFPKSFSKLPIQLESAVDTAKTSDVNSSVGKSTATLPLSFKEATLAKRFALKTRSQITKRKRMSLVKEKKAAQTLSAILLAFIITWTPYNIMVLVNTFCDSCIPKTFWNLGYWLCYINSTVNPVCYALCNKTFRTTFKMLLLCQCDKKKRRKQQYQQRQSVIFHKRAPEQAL
Experiment: cell-based
Settings: read-out: M3 Activity
pEC50: −log10 of the molar value.
MEASUREMENT KIND: pEC50

*Q* With M3 muscarinic receptor (Homo sapiens) as the test system, provide measured pEC50 for this compound: CCOC(=O)N1C2CCC1CC(N1CCC(N(CC(=O)CC)c3ccc(F)cc3)CC1)C2 (stereo not shown)
*A* < 5.30

* * *

Target: M1 muscarinic receptor (Homo sapiens, UniProt P11229)
Construct: expressed in transfected cells; host or cells: CHO (M1-CHO)
Sequence (P11229 1-460): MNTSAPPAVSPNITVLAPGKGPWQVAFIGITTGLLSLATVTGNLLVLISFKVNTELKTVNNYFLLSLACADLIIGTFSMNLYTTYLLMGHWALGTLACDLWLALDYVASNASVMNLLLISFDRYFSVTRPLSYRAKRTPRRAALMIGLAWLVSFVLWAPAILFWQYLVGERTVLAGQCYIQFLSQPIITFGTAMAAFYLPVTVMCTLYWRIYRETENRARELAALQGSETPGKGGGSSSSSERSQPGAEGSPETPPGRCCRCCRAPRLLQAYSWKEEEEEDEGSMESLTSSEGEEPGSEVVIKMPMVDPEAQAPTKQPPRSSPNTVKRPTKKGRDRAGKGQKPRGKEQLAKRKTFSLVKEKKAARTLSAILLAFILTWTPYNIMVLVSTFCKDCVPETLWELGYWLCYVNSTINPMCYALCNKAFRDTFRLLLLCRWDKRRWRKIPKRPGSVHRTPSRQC
Experiment: cell-based
Conditions: read-out: M1 Efficacy
MEASUREMENT KIND: Emax

*Q* Name the recorded Emax of the molecule listed here: CCOC(=O)N1C2CCC1CC(N1CCC(N(C(C)=O)C3CCCC3)CC1)C2 (stereo not drawn)
*A* 25 to 100%

*Q* Name the recorded Emax of the molecule listed here: CCOC(=O)N1C2CCC1CC(N1CCC(Nc3ccc(F)cc3)CC1)C2 (stereo not drawn)
*A* 25 to 100%

*Q* Name the recorded Emax of the molecule listed here: CCCN(C1CCN(C2CC3CCC(C2)N3C(=O)OCC)CC1)S(=O)(=O)c1ccc(C(F)(F)F)cc1 (stereo not drawn)
*A* < 25%

*Q* Name the recorded Emax of the molecule listed here: CCOC(=O)N1C2CCC1CC(N1CCC(N(C)c3ccc(F)cc3)CC1)C2 (stereo not drawn)
*A* 25 to 100%

*Q* Name the recorded Emax of the molecule listed here: CCOC(=O)N1C2CCC1CC(N1CCC(N(C)c3ccccc3)CC1)C2 (stereo not drawn)
*A* 25 to 100%

*Q* Name the recorded Emax of the molecule listed here: CCOC(=O)N1C2CCC1CC(N1CCC(N(C(C)=O)C3CCCCC3)CC1)C2 (stereo not drawn)
*A* 25 to 100%

*Q* Name the recorded Emax of the molecule listed here: CCOC(=O)N1C2CCC1CC(N1CCC(N(C(C)=O)C(C)C)CC1)C2 (stereo not drawn)
*A* 25 to 100%

*Q* Name the recorded Emax of the molecule listed here: CCOC(=O)N1C2CCC1CC(N1CCC(N(Cc3ccccc3)C(C)=O)CC1)C2 (stereo not drawn)
*A* 25 to 100%

*Q* Name the recorded Emax of the molecule listed here: CCOC(=O)N1C2CCC1CC(N1CCC(N(CC(=O)CC)c3ccc(F)cc3)CC1)C2 (stereo not drawn)
*A* 25 to 100%

*Q* Name the recorded Emax of the molecule listed here: CCOC(=O)N1C2CCC1CC(N1CCC(N(c3ccc(F)cc3)S(C)(=O)=O)CC1)C2 (stereo not drawn)
*A* 25 to 100%

*Q* Name the recorded Emax of the molecule listed here: CCOC(=O)N1C2CCC1CC(N1CCC(N(CC)c3ccccc3)CC1)C2 (stereo not drawn)
*A* 25 to 100%

*Q* Name the recorded Emax of the molecule listed here: CCOC(=O)N1C2CCC1CC(N1CCC(N(CC(C)C)S(=O)(=O)c3ccc(C(F)(F)F)cc3)CC1)C2 (stereo not drawn)
*A* < 25%
